Provenance of the data: patent US20230002496A1

Reported IC50, TF-1 cell proliferation values for the following binders.
experimental-target: T1, human GM-CSFRα, full length on cells (human, UniProt P15509 23-400)
T1 sequence: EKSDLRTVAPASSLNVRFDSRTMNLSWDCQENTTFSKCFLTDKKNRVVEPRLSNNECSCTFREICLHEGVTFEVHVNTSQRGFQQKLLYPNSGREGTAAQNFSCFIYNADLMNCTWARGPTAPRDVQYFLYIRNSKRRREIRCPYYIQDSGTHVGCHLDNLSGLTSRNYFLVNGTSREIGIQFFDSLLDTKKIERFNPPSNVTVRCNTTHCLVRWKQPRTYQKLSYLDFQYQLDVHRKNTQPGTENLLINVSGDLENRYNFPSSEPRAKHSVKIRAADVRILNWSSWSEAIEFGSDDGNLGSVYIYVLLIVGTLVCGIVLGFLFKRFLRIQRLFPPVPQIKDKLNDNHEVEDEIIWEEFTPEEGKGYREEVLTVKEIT
method-summary: cell-based or functional assay
Numbers only here, please. The scale is µg/mL.

E35-scFv LS52L (scFv, V domains shown) VH: QMQLVQSGAEVKKPGASVKVSCKVSGYTLTELSIHWVRQAPGKGLEWMGGFDPEDGETIYAQKFQGRVTMTGDTSTDTAYLELSSLRSEDTALYYCATGRYTSLATTYGFDYWGQGTLVTVSS VL: EIVMTQSPATLSLSPGERATLSCRASQSVSSYLAWYQQKPGQAPRLLIYGALSRATGIPDRFSGSGSGTDFTLTISRLEPEDFAVYYCQQYDNWPYTFGQGTKLEIK; 0.115
E35-scFv LN93E (scFv, V domains shown) VH: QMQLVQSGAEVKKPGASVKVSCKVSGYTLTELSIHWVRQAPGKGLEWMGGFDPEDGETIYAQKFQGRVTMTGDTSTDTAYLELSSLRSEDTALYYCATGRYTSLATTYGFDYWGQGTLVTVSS VL: EIVMTQSPATLSLSPGERATLSCRASQSVSSYLAWYQQKPGQAPRLLIYGASSRATGIPDRFSGSGSGTDFTLTISRLEPEDFAVYYCQQYDEWPYTFGQGTKLEIK; 0.081

Let's switch to this binder now.
Request the reported IC50, TF-1 cell proliferation associated with E35-scFv LQ27R (scFv, V domains shown) VH: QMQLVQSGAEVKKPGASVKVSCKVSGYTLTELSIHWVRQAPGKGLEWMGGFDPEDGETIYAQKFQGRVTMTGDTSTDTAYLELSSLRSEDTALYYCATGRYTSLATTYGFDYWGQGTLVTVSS VL: EIVMTQSPATLSLSPGERATLSCRASRSVSSYLAWYQQKPGQAPRLLIYGASSRATGIPDRFSGSGSGTDFTLTISRLEPEDFAVYYCQQYDNWPYTFGQGTKLEIK
0.117
